B1: ZNF75A (parent)
chain: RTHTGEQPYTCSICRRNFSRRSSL

# Variants of: B1
# Test: protein stability index of a GFP-peptide fusion (GPS, HEK-293T) (PSI 1-6); higher = more stable;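 further: lentivirally expressed fusions sorted by FACS into six bins by GFP to DsRed ratio, PSI derived from sequencing read proportions per bin multiplied by bin number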
# Test Context: c terminus: a fixed tail appended

>  <Variant Description>
S19F

>  <protein stability index>
2.59

$$$$
>  <Variant Description>
T10G

>  <protein stability index>
2.18

$$$$
>  <Variant Description>
T10A

>  <protein stability index>
2.85

$$$$
>  <Variant Description>
Y9L

>  <protein stability index>
2.39

$$$$
>  <Variant Description>
R1V

>  <protein stability index>
2.26

$$$$
>  <Variant Description>
R1C

>  <protein stability index>
5.09

$$$$
>  <Variant Description>
R15I

>  <protein stability index>
2.32

$$$$
>  <Variant Description>
I13H

>  <protein stability index>
2.81

$$$$
>  <Variant Description>
T2G

>  <protein stability index>
2.77

$$$$
>  <Variant Description>
N17S

>  <protein stability index>
2.74

$$$$
>  <Variant Description>
L24N

>  <protein stability index>
2.56

$$$$
>  <Variant Description>
P8D

>  <protein stability index>
3.4

$$$$
>  <Variant Description>
R20T

>  <protein stability index>
2.59

$$$$
>  <Variant Description>
L24R

>  <protein stability index>
3.63

$$$$
>  <Variant Description>
I13R

>  <protein stability index>
2.96

$$$$
>  <Variant Description>
N17V

>  <protein stability index>
2.62

$$$$
>  <Variant Description>
G5F

>  <protein stability index>
3.38

$$$$
>  <Variant Description>
T4L

>  <protein stability index>
2.96

$$$$
>  <Variant Description>
R1T

>  <protein stability index>
3.14

$$$$
>  <Variant Description>
R1F

>  <protein stability index>
2.12

$$$$
>  <Variant Description>
R15V

>  <protein stability index>
1.7

$$$$
>  <Variant Description>
S22W

>  <protein stability index>
2.42

$$$$

Source: the supplement of paper PMC10567573
